List of dTm MST3 values.
# study_target: MST3 (Homo sapiens)
# Sequence (Q9Y6E0 whole entry): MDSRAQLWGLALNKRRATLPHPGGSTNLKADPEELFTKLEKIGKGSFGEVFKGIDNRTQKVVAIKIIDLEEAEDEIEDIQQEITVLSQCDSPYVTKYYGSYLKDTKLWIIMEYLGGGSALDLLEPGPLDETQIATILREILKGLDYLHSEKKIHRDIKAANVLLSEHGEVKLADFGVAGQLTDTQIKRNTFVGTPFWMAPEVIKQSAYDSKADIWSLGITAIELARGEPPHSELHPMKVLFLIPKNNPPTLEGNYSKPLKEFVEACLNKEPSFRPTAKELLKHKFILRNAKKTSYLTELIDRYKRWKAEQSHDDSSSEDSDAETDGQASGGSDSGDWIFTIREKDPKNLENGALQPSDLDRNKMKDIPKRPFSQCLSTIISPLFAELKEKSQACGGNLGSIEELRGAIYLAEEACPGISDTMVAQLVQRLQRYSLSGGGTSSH
# condition_description: binder

[
  {
    "mol": "Cc1cccc(-c2ccc(-c3cc4cnc(NCCCc5ccc(N)cc5)nc4n(CCCCN)c3=O)c(Cl)c2)n1",
    "dTm MST3": "12.2 °C"
  },
  {
    "mol": "Cc1cccc(-c2ccc(-c3cc4cnc(Nc5ccc(F)c(CO)c5)nc4n(CCCCN)c3=O)c(Cl)c2)n1",
    "dTm MST3": "16.9 °C"
  },
  {
    "mol": "Cc1cccc(-c2ccc(-c3cc4cnc(Nc5cc(C(F)(F)F)ccc5C)nc4n(CCCCN)c3=O)c(Cl)c2)n1",
    "dTm MST3": "13.0 °C"
  },
  {
    "mol": "Cc1cccc(-c2ccc(-c3cc4cnc(NC(CO)CO)nc4n(CCCCN)c3=O)c(Cl)c2)n1",
    "dTm MST3": "10.6 °C"
  },
  {
    "mol": "Cc1cccc(-c2ccc(-c3cc4cnc(Nc5ccc(CCCO)cc5)nc4n(CCCCN)c3=O)c(Cl)c2)n1",
    "dTm MST3": "16.7 °C"
  },
  {
    "mol": "COc1ccc(O)c(Nc2ncc3cc(-c4ccc(-c5cccc(C)n5)cc4Cl)c(=O)n(CCCCN)c3n2)c1",
    "dTm MST3": "11.0 °C"
  },
  {
    "mol": "Cc1cccc(-c2ccc(-c3cc4cnc(NCCCN5CCCC5=O)nc4n(CCCCN)c3=O)c(Cl)c2)n1",
    "dTm MST3": "10.6 °C"
  }
]

* * *

# study_target: MST2 (Homo sapiens, UniProt Q13188)
# Sequence (Q13188 whole entry): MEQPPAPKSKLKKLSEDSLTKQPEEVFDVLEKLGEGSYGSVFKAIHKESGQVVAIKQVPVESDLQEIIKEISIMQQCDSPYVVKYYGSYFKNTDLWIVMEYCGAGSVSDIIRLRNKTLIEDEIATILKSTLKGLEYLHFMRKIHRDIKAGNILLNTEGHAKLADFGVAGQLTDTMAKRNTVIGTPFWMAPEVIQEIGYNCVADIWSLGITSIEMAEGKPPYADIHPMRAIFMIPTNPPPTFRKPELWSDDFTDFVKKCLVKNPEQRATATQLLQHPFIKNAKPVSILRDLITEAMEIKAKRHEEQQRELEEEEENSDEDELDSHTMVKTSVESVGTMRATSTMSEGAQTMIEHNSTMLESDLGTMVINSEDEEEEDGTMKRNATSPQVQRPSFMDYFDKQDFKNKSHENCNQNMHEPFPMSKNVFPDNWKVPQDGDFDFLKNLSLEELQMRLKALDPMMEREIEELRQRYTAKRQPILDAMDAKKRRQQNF
# condition_description: binder
List of dTm MST2 values.

[
  {
    "mol": "CNc1ncc2cc(-c3ccc(-c4cccc(C)n4)cc3Cl)c(=O)n(CCCCO)c2n1",
    "dTm MST2 / °C": 7.1
  },
  {
    "mol": "CNc1ncc2cc(-c3ccc(-c4cccc(C)n4)cc3Cl)c(=O)n(C[C@H]3CC[C@H](N)CC3)c2n1",
    "dTm MST2 / °C": 10.8
  },
  {
    "mol": "CNc1ncc2cc(-c3ccc(-c4cccc(C)n4)cc3Cl)c(=O)n(CCCCOC)c2n1",
    "dTm MST2 / °C": 8.6
  },
  {
    "mol": "CNc1ncc2cc(-c3ccc(-c4cccc(C)n4)cc3Cl)c(=O)n(CCOC)c2n1",
    "dTm MST2 / °C": 5.0
  },
  {
    "mol": "CNc1ncc2cc(-c3ccc(-c4cccc(C)n4)cc3Cl)c(=O)n(CCC3CCNCC3)c2n1",
    "dTm MST2 / °C": 8.0
  },
  {
    "mol": "CNc1ncc2cc(-c3ccc(-c4cccc(C)n4)cc3Cl)c(=O)n(CCCOC)c2n1",
    "dTm MST2 / °C": 6.2
  },
  {
    "mol": "CNc1ncc2cc(-c3ccc(-c4cccc(C)n4)cc3Cl)c(=O)n(CCCN)c2n1",
    "dTm MST2 / °C": 4.4
  }
]

* * *

# study_target: PAK1 (Homo sapiens)
# condition_description: binder
Classify: Fulfilled when dTm PAK1 is strictly less than 6 °C; Not fulfilled when dTm PAK1 is not.

[
  {
    "mol": "CNc1ncc2cc(-c3ccc(-c4cccc(C)n4)cc3Cl)c(=O)n(CCCCCN)c2n1",
    "assigned_label": "Not fulfilled"
  },
  {
    "mol": "CNc1ncc2cc(-c3ccc(-c4cccc(C)n4)cc3Cl)c(=O)n(CCCN)c2n1",
    "assigned_label": "Fulfilled"
  },
  {
    "mol": "CNc1ncc2cc(-c3ccc(-c4cccc(C)n4)cc3Cl)c(=O)n(CCCO)c2n1",
    "assigned_label": "Fulfilled"
  },
  {
    "mol": "CNc1ncc2cc(-c3ccc(-c4cccc(C)n4)cc3Cl)c(=O)n(CCCCN)c2n1",
    "assigned_label": "Not fulfilled"
  },
  {
    "mol": "CNc1ncc2cc(-c3ccc(-c4cccc(C)n4)cc3Cl)c(=O)n(C)c2n1",
    "assigned_label": "Fulfilled"
  },
  {
    "mol": "CNc1ncc2cc(-c3ccc(-c4cccc(C)n4)cc3Cl)c(=O)n(CCCOC)c2n1",
    "assigned_label": "Fulfilled"
  },
  {
    "mol": "CNc1ncc2cc(-c3ccc(-c4cccc(C)n4)cc3Cl)c(=O)n(C[C@H]3CC[C@H](N)CC3)c2n1",
    "assigned_label": "Not fulfilled"
  },
  {
    "mol": "CNc1ncc2cc(-c3ccc(-c4cccc(C)n4)cc3Cl)c(=O)n(CCCCOC)c2n1",
    "assigned_label": "Fulfilled"
  }
]

* * *

# study_target: UniProt:Q13153
# condition_description: binder
Classify: Y when dTm PAK1 is strictly less than 5 °C; N when dTm PAK1 is not.

[
  {
    "compound": "Cc1cccc(-c2ccc(-c3cc4cnc(NCCCN5CCCC5=O)nc4n(CCCCN)c3=O)c(Cl)c2)n1 [compound 27, MR30]",
    "study_target": "UniProt:Q13153",
    "assigned_label": "Y"
  },
  {
    "compound": "Cc1cccc(-c2ccc(-c3cc4cnc(Nc5ccc(CCCO)cc5)nc4n(CCCCN)c3=O)c(Cl)c2)n1 [compound 30]",
    "study_target": "UniProt:Q13153",
    "assigned_label": "N"
  },
  {
    "compound": "Cc1cccc(-c2ccc(-c3cc4cnc(NCCCc5ccc(N)cc5)nc4n(CCCCN)c3=O)c(Cl)c2)n1 [compound 25]",
    "study_target": "UniProt:Q13153",
    "assigned_label": "N"
  },
  {
    "compound": "COc1ccc(O)c(Nc2ncc3cc(-c4ccc(-c5cccc(C)n5)cc4Cl)c(=O)n(CCCCN)c3n2)c1 [compound 34]",
    "study_target": "UniProt:Q13153",
    "assigned_label": "Y"
  },
  {
    "compound": "Cc1cccc(-c2ccc(-c3cc4cnc(Nc5cc(C(F)(F)F)ccc5C)nc4n(CCCCN)c3=O)c(Cl)c2)n1 [compound 28]",
    "study_target": "UniProt:Q13153",
    "assigned_label": "N"
  },
  {
    "compound": "COc1cc(N2CCN(C)CC2)ccc1Nc1ncc2cc(-c3ccc(-c4cccc(C)n4)cc3Cl)c(=O)n(CCCCN)c2n1 [compound 36]",
    "study_target": "UniProt:Q13153",
    "assigned_label": "N"
  }
]

* * *

List of dTm MST3 values.
# study_target: MST3 (Homo sapiens)
# condition_description: binder

[
  {
    "mol": "COc1cc(N2CCOCC2)ccc1Nc1ncc2cc(-c3ccc(-c4cccc(C)n4)cc3Cl)c(=O)n(CCCCN)c2n1",
    "study_target": "MST3 (Homo sapiens)",
    "unit_of_measure": "°C",
    "dTm MST3": 11.0
  },
  {
    "mol": "Cc1cccc(-c2ccc(-c3cc4cnc(NCCCN5CCOCC5)nc4n(CCCCN)c3=O)c(Cl)c2)n1",
    "study_target": "MST3 (Homo sapiens)",
    "unit_of_measure": "°C",
    "dTm MST3": 11.6
  },
  {
    "mol": "Cc1cccc(-c2ccc(-c3cc4cnc(Nc5ccc(O)cc5)nc4n(CCCCN)c3=O)c(Cl)c2)n1",
    "study_target": "MST3 (Homo sapiens)",
    "unit_of_measure": "°C",
    "dTm MST3": 17.1
  },
  {
    "mol": "Cc1cccc(-c2ccc(-c3cc4cnc(Nc5ccc(C)c(O)c5)nc4n(CCCCN)c3=O)c(Cl)c2)n1",
    "study_target": "MST3 (Homo sapiens)",
    "unit_of_measure": "°C",
    "dTm MST3": 17.5
  },
  {
    "mol": "Cc1cccc(-c2ccc(-c3cc4cnc(NCCCN5CCNCC5)nc4n(CCCCN)c3=O)c(Cl)c2)n1",
    "study_target": "MST3 (Homo sapiens)",
    "unit_of_measure": "°C",
    "dTm MST3": 13.0
  },
  {
    "mol": "COc1cc(N2CCN(C)CC2)ccc1Nc1ncc2cc(-c3ccc(-c4cccc(C)n4)cc3Cl)c(=O)n(CCCCN)c2n1",
    "study_target": "MST3 (Homo sapiens)",
    "unit_of_measure": "°C",
    "dTm MST3": 13.5
  }
]

* * *

# study_target: PAK1 (Homo sapiens, UniProt Q13153)
# Sequence (Q13153 whole entry): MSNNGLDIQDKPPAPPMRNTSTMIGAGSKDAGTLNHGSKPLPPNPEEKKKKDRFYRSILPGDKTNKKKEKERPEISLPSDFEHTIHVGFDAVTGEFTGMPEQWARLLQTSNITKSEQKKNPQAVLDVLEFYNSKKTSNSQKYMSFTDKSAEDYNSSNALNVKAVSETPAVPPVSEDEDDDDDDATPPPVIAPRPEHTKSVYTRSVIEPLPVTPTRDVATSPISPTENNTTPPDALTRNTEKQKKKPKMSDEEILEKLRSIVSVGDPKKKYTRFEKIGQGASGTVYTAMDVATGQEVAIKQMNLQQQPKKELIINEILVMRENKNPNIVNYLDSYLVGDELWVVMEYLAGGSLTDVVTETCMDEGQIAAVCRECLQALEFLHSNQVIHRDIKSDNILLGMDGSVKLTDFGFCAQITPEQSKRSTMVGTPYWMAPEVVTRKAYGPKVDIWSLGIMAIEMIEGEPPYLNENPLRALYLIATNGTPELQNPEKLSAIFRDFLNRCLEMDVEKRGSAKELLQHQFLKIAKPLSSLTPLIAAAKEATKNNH
# condition_description: binder
dTm PAK1 of 5 °C or higher: MET. Under 5 °C: NOT MET.

[
  {
    "mol": "CNc1ncc2cc(-c3ccc(-c4cccc(C)n4)cc3Cl)c(=O)n(CCOC)c2n1",
    "assigned_label": "NOT MET"
  },
  {
    "mol": "CNc1ncc2cc(-c3ccc(-c4cccc(C)n4)cc3Cl)c(=O)n(CCC3CCNCC3)c2n1",
    "assigned_label": "MET"
  },
  {
    "mol": "CNc1ncc2cc(-c3ccc(-c4cccc(C)n4)cc3Cl)c(=O)n(CCN)c2n1",
    "assigned_label": "NOT MET"
  },
  {
    "mol": "CNc1ncc2cc(-c3ccc(-c4cccc(C)n4)cc3Cl)c(=O)n(CCCCCO)c2n1",
    "assigned_label": "MET"
  }
]
